# Tested on: HeLa Kyoto
# Experiment: solubility in G1/S (NP-40 vs SDS abundance) (log2 ratio); higher = more soluble
# Reported Conditions: cell cycle stage: G1/S
Measured solubility in G1/S (log2) of individual entries
Note: the reply should be a number with no unit written.

Exercise: Name the reported solubility in G1/S (log2) value associated with the sequence MHRDSCPLDCKVYVGNLGNNGNKTELERAFGYYGPLRSVWVARNPPGFAFVEFEDPRDAADAVRELDGRTLCGCRVRVELSNGEKRSRNRGPPPSWGRRPRDDYRRRSPPPRRRSPRRRSFSRSRSRSLSRDRRRERSLSRERNHKPSRSFSRSRSRSRSNERK [SRSF3]
Key: -0.0567

Exercise: Another sequence to check: MASNVTNKTDPRSMNSRVFIGNLNTLVVKKSDVEAIFSKYGKIVGCSVHKGFAFVQYVNERNARAAVAGEDGRMIAGQVLDINLAAEPKVNRGKAGVKRSAAEMYGSVTEHPSPSPLLSSSFDLDYDFQRDYYDRMYSYPARVPPPPPIARAVVPSKRQRVSGNTSRRGKSGFNSKSGQRGSSKSGKLKGDDLQAIKKELTQIKQKVDSLLENLEKIEKEQSKQAVEMKNDKSEEEQSSSSVKKDETNVKMESEGGADDSAEEGDLLDDDDNEDRGDDQLELIKDDEKEAEEGEDDRDSANGEDDS [HNRNPC]
Key: -0.0638

* * *

Measured thermal stability score of individual entries
# System: HeLa Kyoto
# Experiment: thermal stability score vs G1/S (z-score of summed log2 fold changes over temperatures); higher = more thermally stable than in G1/S
# Reported Conditions: cell cycle stage: mitosis
Note: the reply should be a number with no unit written.

Example results:
chain_sequence="MHRRGVGAGAIAKKKLAEAKYKERGTVLAEDQLAQMSKQLDMFKTNLEEFASKHKQEIRKNPEFRVQFQDMCATIGVDPLASGKGFWSEMLGVGDFYYELGVQIIEVCLALKHRNGGLITLEELHQQVLKGRGKFAQDVSQDDLIRAIKKLKALGTGFGIIPVGGTYLIQSVPAELNMDHTVVLQLAEKNGYVTVSEIKASLKWETERARQVLEHLLKEGLAWLDLQAPGEAHYWLPALFTDLYSQEITAEEAREALP [SNF8]" value_measured=-0.397
chain_sequence="MVAGSDAGRALGVLSVVCLLHCFGFISCFSQQIYGVVYGNVTFHVPSNVPLKEVLWKKQKDKVAELENSEFRAFSSFKNRVYLDTVSGSLTIYNLTSSDEDEYEMESPNITDTMKFFLYVLESLPSPTLTCALTNGSIEVQCMIPEHYNSHRGLIMYSWDCPMEQCKRNSTSIYFKMENDLPQKIQCTLSNPLFNTTSSIILTTCIPSSGHSRHRYALIPIPLAVITTCIVLYMNGILKCDRKPDRTNSN [CD58]" value_measured=-1.23

API: the following record is the query input.
Exercise: Name the reported thermal stability score value associated with the sequence MQAERGARGGRGRRPGRGRPGGDRHSERPGAAAAVARGGGGGGGGDGGGRRGRGRGRGFRGARGGRGGGGAPRGSRREPGGWGAGASAPVEDDSDAETYGEENDEQGNYSKRKIVSNWDRYQDIEKEVNNESGESQRGTDFSVLLSSAGDSFSQFRFAEEKEWDSEASCPKQNSAFYVDSELLVRALQELPLCLRLNVAAELVQGTVPLEVPQVKPKRTDDGKGLGMQLKGPLGPGGRGPIFELKSVAAGCPVLLGKDNPSPGPSRDSQKPTSPLQSAGDHLEEELDLLLNLDAPIKEGDNILPDQTSQDLKSKEDGEVVQEEEVCAKPSVTEEKNMEPEQPSTSKNVTEEELEDWLDSMIS [AVEN]
Key: -2.4

* * *

# Tested on: HeLa Kyoto
# Experiment: melting temperature (median over replicates), in situ; higher = more thermally stable
# Reported Conditions: cell cycle stage: G1/S
Quantity Kind: melting temperature (°C)
Output spec: scalar in °C, unitless text.

Example results:
chain_sequence="MPELAVQKVVVHPLVLLSVVDHFNRIGKVGNQKRVVGVLLGSWQKKVLDVSNSFAVPFDEDDKDDSVWFLDHDYLENMYGMFKKVNARERIVGWYHTGPKLHKNDIAINELMKRYCPNSVLVIIDVKPKDLGLPTEAYISVEEVHDDGTPTSKTFEHVTSEIGAEEAEEVGVEHLLRDIKDTTVGTLSQRITNQVHGLKGLNSKLLDIRSYLEKVATGKLPINHQIIYQLQDVFNLLPDVSLQEFVKAFYLKTNDQMVVVYLASLIRSVVALHNLINNKIANRDAEKKEGQEKEESKKDRKEDKEKDKDKEKSDVKKEEKKEKK [PSMD7]" value_measured=53.9
chain_sequence="MHKAGLLGLCARAWNSVRMASSGMTRRDPLANKVALVTASTDGIGFAIARRLAQDGAHVVVSSRKQQNVDQAVATLQGEGLSVTGTVCHVGKAEDRERLVATAVKLHGGIDILVSNAAVNPFFGSIMDVTEEVWDKTLDINVKAPALMTKAVVPEMEKRGGGSVVIVSSIAAFSPSPGFSPYNVSKTALLGLTKTLAIELAPRNIRVNCLAPGLIKTSFSRMLWMDKEKEESMKETLRIRRLGEPEDCAGIVSFLCSEDASYITGETVVVGGGTPSRL [DHRS4]" value_measured=53.4

API: the following record is the query input.
Exercise: Name the reported melting temperature value associated with the sequence MSDEEARQSGGSSQAGVVTVSDVQELMRRKEEIEAQIKANYDVLESQKGIGMNEPLVDCEGYPRSDVDLYQVRTARHNIICLQNDHKAVMKQVEEALHQLHARDKEKQARDMAEAHKEAMSRKLGQSESQGPPRAFAKVNSISPGSPASIAGLQVDDEIVEFGSVNTQNFQSLHNIGSVVQHSEGKPLNVTVIRRGEKHQLRLVPTRWAGKGLLGCNIIPLQR [PSMD9]
Key: 55.8

* * *

# Test system: HeLa Kyoto
# Experiment: melting temperature (median over replicates), in situ; higher = more thermally stable
# Reported Conditions: cell cycle stage: mitosis
Measured melting temperature of individual entries
Output spec: scalar in °C, unitless text.

Example results:
chain_sequence="MAGVRSLRCSRGCAGGCECGDKGKCSDSSLLGKRLSEDSSRHQLLQKWASMWSSMSEDASVADMERAQLEEEAAAAEERPLVFLCSGCRRPLGDSLSWVASQEDTNCILLRCVSCNVSVDKEQKLSKREKENGCVLETLCCAGCSLNLGYVYRCTPKNLDYKRDLFCLSVEAIESYVLGSSEKQIVSEDKELFNLESRVEIEKSLTQMEDVLKALQMKLWEAESKLSFATCKS [MIS18A]" quantity_kind="melting temperature" value_measured=51.9
chain_sequence="MSTAQSLKSVDYEVFGRVQGVCFRMYTEDEARKIGVVGWVKNTSKGTVTGQVQGPEDKVNSMKSWLSKVGSPSSRIDRTNFSNEKTISKLEYSNFSIRY [ACYP2]" quantity_kind="melting temperature" value_measured=53.4
chain_sequence="MSSKRTKTKTKKRPQRATSNVFAMFDQSQIQEFKEAFNMIDQNRDGFIDKEDLHDMLASLGKNPTDEYLDAMMNEAPGPINFTMFLTMFGEKLNGTDPEDVIRNAFACFDEEATGTIQEDYLRELLTTMGDRFTDEEVDELYREAPIDKKGNFNYIEFTRILKHGAKDKDD [MYL12A]" quantity_kind="melting temperature" value_measured=52.7

Exercise: Name the reported melting temperature value associated with the sequence MQPQSVLHSGYFHPLLRAWQTATTTLNASNLIYPIFVTDVPDDIQPITSLPGVARYGVKRLEEMLRPLVEEGLRCVLIFGVPSRVPKDERGSAADSEESPAIEAIHLLRKTFPNLLVACDVCLCPYTSHGHCGLLSENGAFRAEESRQRLAEVALAYAKAGCQVVAPSDMMDGRVEAIKEALMAHGLGNRVSVMSYSAKFASCFYGPFRDAAKSSPAFGDRRCYQLPPGARGLALRAVDRDVREGADMLMVKPGMPYLDIVREVKDKHPDLPLAVYHVSGEFAMLWHGAQAGAFDLKAAVLEAMTAFRRAGADIIITYYTPQLLQWLKEE [ALAD]
Key: 55.2

Exercise: Another sequence to check: MALLALLLVVALPRVWTDANLTARQRDPEDSQRTDEGDNRVWCHVCERENTFECQNPRRCKWTEPYCVIAAVKIFPRFFMVAKQCSAGCAAMERPKPEEKRFLLEEPMPFFYLKCCKIRYCNLEGPPINSSVFKEYAGSMGESCGGLWLAILLLLASIAAGLSLS [LY6K]
Key: 52.9

Exercise: Another sequence to check: MSLEDPFFVVRGEVQKAVNTARGLYQRWCELLQESAAVGREELDWTTNELRNGLRSIEWDLEDLEETIGIVEANPGKFKLPAGDLQERKVFVERMREAVQEMKDHMVSPTAVAFLERNNREILAGKPAAQKSPSDLLDASAVSATSRYIEEQQATQQLIMDEQDQQLEMVSGSIQVLKHMSGRVGEELDEQGIMLDAFAQEMDHTQSRMDGVLRKLAKVSHMTSDRRQWCAIAVLVGVLLLVLILLFSL [STX10]
Key: 51.6

Exercise: Another sequence to check: MVLESVARIVKVQLPAYLKRLPVPESITGFARLTVSEWLRLLPFLGVLALLGYLAVRPFLPKKKQQKDSLINLKIQKENPKVVNEINIEDLCLTKAAYCRCWRSKTFPACDGSHNKHNELTGDNVGPLILKKKEV [CISD2]
Key: 54.7
